Molecular target: Adenosine receptor A2b (Homo sapiens) (UniProt P29275)
Assay: Agonist activity human adenosine A2B receptor expressed in CHO cells assessed as stimulation of adenylate cyclase relative to NECA
Type: functional, cell-based
Each item that follows carries a reported Activity.

Example cases with answers are listed next.
COMPOUND_STRUCTURE_STRING: CCNC(=O)[C@H]1O[C@@H](n2cnc3c(N)ncnc32)[C@H](O)[C@@H]1O
MEASUREMENT: 0
--
COMPOUND_STRUCTURE_STRING: CCNC(=O)[C@H]1O[C@@H](n2cnc3c(Nc4ccc(OCC(=O)Nc5ccc(OC)c(OC)c5)cc4)ncnc32)[C@H](O)[C@@H]1O
MEASUREMENT: 0.533
--
COMPOUND_STRUCTURE_STRING: CCNC(=O)[C@H]1O[C@@H](n2cnc3c(NNC(=O)c4ccc(Br)o4)ncnc32)[C@H](O)[C@@H]1O
MEASUREMENT: -0.363
--
COMPOUND_STRUCTURE_STRING: CCCCC#Cc1nc(NCC)c2ncn([C@@H]3O[C@H](CO)[C@@H](O)[C@H]3O)c2n1
MEASUREMENT: -1.62
--
COMPOUND_STRUCTURE_STRING: CCNC(=O)[C@H]1O[C@@H](n2cnc3c(NNC(=O)c4ccco4)ncnc32)[C@H](O)[C@@H]1O
MEASUREMENT: 0.29
--
COMPOUND_STRUCTURE_STRING: Nc1nc(OCCc2ccccc2)nc2c1ncn2[C@@H]1O[C@H](CO)[C@@H](O)[C@H]1O
MEASUREMENT: -1.4
--
COMPOUND_STRUCTURE_STRING: O=C(NNc1nc(OCCc2c[nH]c3cc(Br)ccc23)nc2c1ncn2[C@@H]1O[C@H](CO)[C@@H](O)[C@H]1O)c1ccco1
MEASUREMENT: -0.315

Fill in: Activity of CCNC(=O)[C@H]1O[C@@H](n2cnc3c(Nc4ccc(OCC(=O)Nc5ccc(F)cc5)cc4)ncnc32)[C@H](O)[C@@H]1O is ___ 1.01

---

These compounds were tested on UniProt:P30542; pKi is the recorded read-out.
Sequence (P30542 whole entry): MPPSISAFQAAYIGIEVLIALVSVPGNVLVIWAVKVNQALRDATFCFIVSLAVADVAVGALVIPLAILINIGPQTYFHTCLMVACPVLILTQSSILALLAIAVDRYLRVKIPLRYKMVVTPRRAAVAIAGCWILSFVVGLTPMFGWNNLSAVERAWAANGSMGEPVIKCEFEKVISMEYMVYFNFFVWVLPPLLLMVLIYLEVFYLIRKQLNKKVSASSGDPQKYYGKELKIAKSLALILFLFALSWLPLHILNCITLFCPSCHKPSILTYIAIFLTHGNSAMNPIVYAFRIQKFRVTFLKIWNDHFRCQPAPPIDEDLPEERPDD
A value of pKi is the negative decimal logarithm of a concentration given in moles per litre.

Example cases with answers are listed next.
COMPOUND_STRUCTURE_STRING: O=C(COc1ccc(Nc2nc(OCCc3c[nH]c4cc(Br)ccc34)nc3c2ncn3[C@@H]2O[C@H](CO)[C@@H](O)[C@H]2O)cc1)Nc1ccccc1
pKi: 6.43

COMPOUND_STRUCTURE_STRING: NNc1nc(OCCc2c[nH]c3cc(Br)ccc23)nc2c1ncn2[C@@H]1O[C@H](CO)[C@@H](O)[C@H]1O
pKi: 6.46

Now for a further compound.
Fill in: pKi of O=C(COc1ccc(Nc2nc(OCCc3c[nH]c4cc(Br)ccc34)nc3c2ncn3[C@@H]2O[C@H](CO)[C@@H](O)[C@H]2O)cc1)N1CCCC1 is ___ 6.38

---

Each item that follows carries a reported Activity.
Biological target: UniProtKB P29275
Experiment: Agonist activity human adenosine A2B receptor expressed in CHO cells assessed as stimulation of adenylate cyclase relative to NECA
Assay type: functional, cell-based
Simply state the number, no unit and no words.

COMPOUND_STRUCTURE_STRING: CCNC(=O)[C@H]1O[C@@H](n2cnc3c(Nc4ccc(OCC(=O)Nc5ccc(OC)cc5)cc4)nc(Cl)nc32)[C@H](O)[C@@H]1O
TESTED_TARGET: UniProtKB P29275
Activity: -0.366

COMPOUND_STRUCTURE_STRING: Nc1nc(C#C[C@@H](O)c2ccccc2)nc2c1ncn2[C@@H]1O[C@H](CO)[C@@H](O)[C@H]1O
TESTED_TARGET: UniProtKB P29275
Activity: 0.416

COMPOUND_STRUCTURE_STRING: Nc1nc(OCCc2c[nH]c3ccccc23)nc2c1ncn2[C@@H]1O[C@H](CO)[C@@H](O)[C@H]1O
TESTED_TARGET: UniProtKB P29275
Activity: -0.33

COMPOUND_STRUCTURE_STRING: CCNC[C@H]1O[C@@H](n2cnc3c(NC(=N)N)ncnc32)[C@H](O)[C@@H]1O
TESTED_TARGET: UniProtKB P29275
Activity: 0.41

COMPOUND_STRUCTURE_STRING: CCNc1nc(C#C[C@@H](O)c2ccccc2)nc2c1ncn2[C@@H]1O[C@H](CO)[C@@H](O)[C@H]1O
TESTED_TARGET: UniProtKB P29275
Activity: 0.517

COMPOUND_STRUCTURE_STRING: CCNC(=O)[C@H]1O[C@@H](n2cnc3c(NNC(=O)c4sccc4C)nc(Cl)nc32)[C@H](O)[C@@H]1O
TESTED_TARGET: UniProtKB P29275
Activity: -0.327

COMPOUND_STRUCTURE_STRING: OC[C@H]1O[C@@H](n2cnc3c(Nc4ccccc4)ncnc32)[C@H](O)[C@@H]1O
TESTED_TARGET: UniProtKB P29275
Activity: -1.31

COMPOUND_STRUCTURE_STRING: CCCCC#Cc1nc(NC(C)C)c2ncn([C@@H]3O[C@H](CO)[C@@H](O)[C@H]3O)c2n1
TESTED_TARGET: UniProtKB P29275
Activity: -1.62

COMPOUND_STRUCTURE_STRING: CCNC(=O)[C@H]1O[C@@H](n2cnc3c(Nc4ccc(OCC(=O)Nc5ccc(C(C)(C)C)cc5)cc4)ncnc32)[C@H](O)[C@@H]1O
TESTED_TARGET: UniProtKB P29275
Activity: 0.976

COMPOUND_STRUCTURE_STRING: CNc1nc(C#C[C@H](O)c2ccccc2)nc2c1ncn2[C@@H]1O[C@H](CO)[C@@H](O)[C@H]1O
TESTED_TARGET: UniProtKB P29275
Activity: -1.62

Fill in: Activity of CCNC(=O)[C@H]1O[C@@H](n2cnc3c(Nc4ccc(OCC(=O)Nc5cc(OC)cc(OC)c5)cc4)ncnc32)[C@H](O)[C@@H]1O is ___ 0.461

Also Nc1nc(OCCc2c[nH]c3ccc(Br)cc23)nc2c1ncn2[C@@H]1O[C@H](CO)[C@@H](O)[C@H]1O , if possible. -0.416

Also Nc1nc(OCCc2cc[nH]c2)nc2c1ncn2[C@@H]1O[C@H](CO)[C@@H](O)[C@H]1O , if possible. -1.27

Also CCNC(=O)[C@H]1O[C@@H](n2cnc3c(Nc4ccc(OCC(=O)Nc5ccc(Cl)cc5)cc4)ncnc32)[C@H](O)[C@@H]1O , if possible. 1.1

Also CCNC(=O)[C@H]1O[C@@H](n2cnc3c(Nc4ccc(OCC(=O)Nc5ccccc5)cc4)nc(Cl)nc32)[C@H](O)[C@@H]1O , if possible. 0.561

Also CCNC(=O)[C@H]1O[C@@H](n2cnc3c(NC)ncnc32)[C@H](O)[C@@H]1O , if possible. -0.787

---

Each item that follows carries a reported pEC50.
Biological target: Adenosine receptor A2b (Homo sapiens, UniProt P29275)
Sequence (P29275 whole entry): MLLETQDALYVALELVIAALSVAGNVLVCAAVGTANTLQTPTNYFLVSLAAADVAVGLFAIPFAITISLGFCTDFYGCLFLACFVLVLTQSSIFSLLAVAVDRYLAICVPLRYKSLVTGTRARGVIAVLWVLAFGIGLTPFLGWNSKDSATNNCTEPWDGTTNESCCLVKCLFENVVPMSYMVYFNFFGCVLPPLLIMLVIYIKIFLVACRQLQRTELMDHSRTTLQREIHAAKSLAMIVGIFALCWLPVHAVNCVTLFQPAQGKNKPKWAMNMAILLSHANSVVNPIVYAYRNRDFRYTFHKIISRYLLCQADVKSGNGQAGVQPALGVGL
Assay: Agonist activity at human adenosine A2B receptor expressed in CHO cells assessed as stimulation of adenylate cyclase
Type: functional, cell-based
A value of pEC50 is the negative decimal logarithm of a concentration given in moles per litre.

Example cases with answers are listed next.
COMPOUND_STRUCTURE_STRING: NNc1nc(OCCc2c[nH]c3cc(Br)ccc23)nc2c1ncn2[C@@H]1O[C@H](CO)[C@@H](O)[C@H]1O
MEASUREMENT: 6.76
--
COMPOUND_STRUCTURE_STRING: O=C(COc1ccc(Nc2nc(OCCc3c[nH]c4cc(Br)ccc34)nc3c2ncn3[C@@H]2O[C@H](CO)[C@@H](O)[C@H]2O)cc1)N1CCCC1
MEASUREMENT: 6.02
--
COMPOUND_STRUCTURE_STRING: O=C(NNc1nc(OCCc2c[nH]c3cc(Br)ccc23)nc2c1ncn2[C@@H]1O[C@H](CO)[C@@H](O)[C@H]1O)c1ccco1
MEASUREMENT: 6.54

Fill in: pEC50 of O=C(COc1ccc(Nc2nc(OCCc3c[nH]c4cc(Br)ccc34)nc3c2ncn3[C@@H]2O[C@H](CO)[C@@H](O)[C@H]2O)cc1)Nc1ccccc1 is ___ 6.84
